The measurements presented in this section are drawn from PubChem BioAssay (NCI).

Recorded TGI values for a group of compounds are listed next.
test system: MALME-3M melanoma; assay: NCI tumour cell line growth inhibition, 48 h
assay.readout: TGI (µM)

{"compound": "CCN1C(=S)N(CC)C2C1NC(=S)N2/N=C/C=C/c1ccccc1OC (stereo not given)", "test.target": "MALME-3M melanoma", "censoring.sign": "=", "numeric.result": 63}
{"compound": "Cn1c2ccccc2c2ccc3c(c21)C(=O)c1ccc2c4ccccc4n(C)c2c1C3=O", "test.target": "MALME-3M melanoma", "censoring.sign": ">", "numeric.result": 100}
{"compound": "O=c1/c(=C/c2ccccc2[N+](=O)[O-])sc2nnc(-c3cccnc3)n12", "test.target": "MALME-3M melanoma", "censoring.sign": ">", "numeric.result": 100}
{"compound": "Cc1ccc2cccc(-c3cccc4ccccc34)c2n1", "test.target": "MALME-3M melanoma", "censoring.sign": ">", "numeric.result": 100}
{"compound": "CC(C)C(Br)CCC1=CCC(Br)(Br)C1 (stereo not given)", "test.target": "MALME-3M melanoma", "censoring.sign": "=", "numeric.result": 27.9}
{"compound": "Cc1nc2ccccc2nc1CC(=O)C(=O)Nc1ccc(Cl)cc1Cl", "test.target": "MALME-3M melanoma", "censoring.sign": ">", "numeric.result": 100}
{"compound": "CN1CSC(=S)N(c2cccc(C(F)(F)F)c2)C1", "test.target": "MALME-3M melanoma", "censoring.sign": "=", "numeric.result": 35.2}
{"compound": "Cc1c(C)n(-c2ccccc2)c2nc(S(C)=O)nc(S(C)=O)c12 (stereo not given)", "test.target": "MALME-3M melanoma", "censoring.sign": "=", "numeric.result": 4.09}
{"compound": "Cc1nc(N)c(N2CCN(C#N)CC2)c(=O)[nH]1", "test.target": "MALME-3M melanoma", "censoring.sign": ">", "numeric.result": 100}
{"compound": "CN(C)CCn1c(=O)c2ccc(NCCCN(C)CCCNc3ccc4c(=O)n(CCN(C)C)c(=O)n5c6ccc(O)cc6c(=O)c3c45)c3c(=O)c4cc(O)ccc4n(c1=O)c23", "test.target": "MALME-3M melanoma", "censoring.sign": "=", "numeric.result": 0.598}

----------
system: ACHN renal; test: NCI tumour cell line growth inhibition, 48 h
assay.readout: TGI

{"compound": "COC(=O)/C=C(/C=C1/C(C#N)=C(N)N(c2ccc(Cl)cc2)C1(C)/C(=C\\C(=O)OC)C(=O)OC)C(=O)OC (centres undefined)", "assay.readout": "TGI", "result": "76.8 µM"}
{"compound": "N#C/C(=C\\c1cc(OCc2ccccc2)c(OCc2ccccc2)cn1)C(N)=O", "assay.readout": "TGI", "result": "> 100 µM"}
{"compound": "NC1=CC(=O)c2c(O)ccc(O)c2C1=O", "assay.readout": "TGI", "result": "34.2 µM"}
{"compound": "Cc1nc(N)c(N2CCN(C#N)CC2)c(=O)[nH]1", "assay.readout": "TGI", "result": "> 100 µM"}
{"compound": "CC1=NN(C(=O)Cc2ccccc2)C(=O)/C1=C\\c1ccc(O)cc1", "assay.readout": "TGI", "result": "> 100 µM"}
{"compound": "Cc1c(C)n(-c2ccccc2)c2nc(S(C)=O)nc(S(C)=O)c12 (centres undefined)", "assay.readout": "TGI", "result": "18.5 µM"}
{"compound": "c1ccc(-c2[nH]ncc2-c2ccnc(-c3ccc(OCCn4ccnc4)cc3)c2)nc1", "assay.readout": "TGI", "result": "> 25 µM"}
{"compound": "COc1ccc2c(c1)c1c(n2CCN2CCCCC2)-c2cccc(OC)c2CC1", "assay.readout": "TGI", "result": "43 µM"}
{"compound": "O=C(/C=C/c1ccc(Cl)cc1)Oc1ccc(C=C2CCC/C(=C\\c3ccc(OC(=O)/C=C/c4ccc(Cl)cc4)cc3)C2=O)cc1", "assay.readout": "TGI", "result": "> 100 µM"}
{"compound": "CC(=O)O[C@H]1C(=O)[C@@]2(C)C([C@H](OC(=O)c3ccccc3)[C@]3(O)C[C@H](OC(=O)[C@H](O)[C@@H](NC(=O)c4ccccc4)c4ccccc4)C(C)=C1C3(C)C)[C@]1(OC(C)=O)CO[C@@H]1C[C@@H]2O (some centres undefined)", "assay.readout": "TGI", "result": "> 50 µM"}
{"compound": "CCOC(=O)c1csc(NC(=O)C(C)N2CCCC2)n1 (centres undefined)", "assay.readout": "TGI", "result": "> 100 µM"}
{"compound": "O=C1Oc2ccccc2C(=O)/C1=C1/C=C(c2ccccc2)SS1", "assay.readout": "TGI", "result": "> 100 µM"}
{"compound": "CCOC1C=CC(=O)C(CO)O1 (centres undefined)", "assay.readout": "TGI", "result": "24.1 µM"}
{"compound": "Cn1nc(-c2ccc(S(=O)(=O)/N=C(\\NN)Nc3ccc(Cl)cc3)s2)cc1C(F)(F)F", "assay.readout": "TGI", "result": "33.8 µM"}
{"compound": "Cn1c([N+](=O)[O-])cnc1C=C1C(=O)c2ccccc2C1=O", "assay.readout": "TGI", "result": "13.7 µM"}
{"compound": "O=C(NCCNCCO)c1ccc2c(c1)oc1cc3ccccc3c(=O)n12", "assay.readout": "TGI", "result": "> 50 µM"}
{"compound": "COC1OC(C)C(NC(=O)OCC(Cl)(Cl)Cl)C2OC(C)(C)OC12 (centres undefined)", "assay.readout": "TGI", "result": "> 100 µM"}
{"compound": "[N-]=[N+]=CC(=O)C1CCCN1C(=O)c1ccccc1 (centres undefined)", "assay.readout": "TGI", "result": "> 10 µM"}
{"compound": "O=c1ccc2ccc(S)cc2o1", "assay.readout": "TGI", "result": "> 100 µM"}
{"compound": "COc1cc2c(cc1Nc1nc(N3CCc4ccccc43)c3cc[nH]c3n1)N(C(=O)CN(C)C)CC2", "assay.readout": "TGI", "result": "8.82 µM"}
{"compound": "O=C(/C=C/C12c3ccccc3C(c3ccccc31)C1C(=O)NC(=O)C12)c1ccccn1 (centres undefined)", "assay.readout": "TGI", "result": "10.3 µM"}
{"compound": "N#CC1(c2ccc(NC(=O)c3cccnc3NCc3ccncc3)cc2)CCCC1", "assay.readout": "TGI", "result": "> 70.9 µM"}
{"compound": "CCOC(=O)c1c(N2CCCC2)[nH]c(=O)c(C(c2ccc(OC)cc2)c2c(O)c(C(=O)OCC)c(N3CCCC3)[nH]c2=O)c1O", "assay.readout": "TGI", "result": "> 100 µM"}
{"compound": "O=c1c(F)cn2c(=O)n1CCCCCCCn1c(=O)c(F)cn(c1=O)CCCCCCC2", "assay.readout": "TGI", "result": "> 100 µM"}
{"compound": "COc1ccc2c(N)ncc(C#Cc3cc(C(=O)Nc4ccc(CN5CCN(C)CC5)c(C(F)(F)F)c4)cnc3C)c2c1", "assay.readout": "TGI", "result": "1.15 µM"}
{"compound": "O=C1CC(c2ccccc2)Oc2ccccc21 (centres undefined)", "assay.readout": "TGI", "result": "> 100 µM"}
{"compound": "c1c[nH]c(-c2cccc3nsnc23)c1", "assay.readout": "TGI", "result": "> 100 µM"}
{"compound": "COc1cc2c(N3CCN(C(=O)Nc4ccc(OC(C)C)cc4)CC3)ncnc2cc1OCCCN1CCCCC1", "assay.readout": "TGI", "result": "55.6 µM"}
{"compound": "O=c1/c(=C/c2ccccc2[N+](=O)[O-])sc2nnc(-c3cccnc3)n12", "assay.readout": "TGI", "result": "> 100 µM"}
{"compound": "CCOC(=O)CSc1nc(N)c2c(-c3ccccc3)c3c(nc2n1)CCCC3", "assay.readout": "TGI", "result": "> 100 µM"}
{"compound": "CC1(C)OC[C@@H]([C@@]2(CO[Si](c3ccccc3)(c3ccccc3)C(C)(C)C)CC=CC(=O)O2)O1", "assay.readout": "TGI", "result": "36.6 µM"}
{"compound": "O=C1NC(=N[C@@H](CO)c2ccccc2)S/C1=C\\c1ccc2ncccc2c1", "assay.readout": "TGI", "result": "> 25 µM"}
{"compound": "CN(C)C(=O)C(F)(F)C(c1ccc(F)cc1)C1C(=O)N(C)C(=O)N(C)C1=O (centres undefined)", "assay.readout": "TGI", "result": "> 100 µM"}
{"compound": "CC(=O)c1ccc(Oc2c3ccccc3nc3ccccc23)cc1", "assay.readout": "TGI", "result": "15.9 µM"}
{"compound": "NNC(=O)C(=O)N/N=C1/CCCC1C(=O)CCC(=O)Nc1ccc(Cl)cc1 (centres undefined)", "assay.readout": "TGI", "result": "> 100 µM"}
{"compound": "COC(=O)CNC(=O)C(CSC(=O)OCC1c2ccccc2-c2ccccc21)NC(=O)CCC(NC(=O)OCC1c2ccccc2-c2ccccc21)C(=O)OC (centres undefined)", "assay.readout": "TGI", "result": "> 100 µM"}
{"compound": "COC(=O)C1C(=O)O[C@@H](c2ccc3c(c2)OCO3)C1C(=O)OC (mixture of isomers)", "assay.readout": "TGI", "result": "> 100 µM"}
{"compound": "COc1cc(C)c(CC/C(C)=C/Cc2cc(O)ccc2O)c(C)c1C", "assay.readout": "TGI", "result": "> 25 µM"}
{"compound": "c1ccc(C2=NC3OC2c2ccccc23)cc1 (centres undefined)", "assay.readout": "TGI", "result": "> 10 µM"}
